assay: Pharmacokinetics and tissue distribution in CD-1 mice; format: in vivo; details: female, mouse, spleen, IV 5 mg/kg
REPORTED ENDPOINT: half-life (min)

1) O=C1C(NCc2ccccc2)=CC2=NCCc3c[nH]c1c32: 16.2

* * *

assay: Pharmacokinetics and tissue distribution in nude mice; type: in vivo; conditions: female, nude (nu/nu), mouse, plasma, IV 5 mg/kg
REPORTED ENDPOINT: AUC

1. O=C1C(NCc2ccccc2)=CC2=NCCc3c[nH]c1c32: 40 ng·h/mL

* * *

assay: Pharmacokinetics and tissue distribution in nude mice; format: in vivo; conditions: female, nude (nu/nu), mouse, liver, IV 5 mg/kg
REPORTED ENDPOINT: half-life (min)

1) O=C1C(NCc2ccccc2)=CC2=NCCc3c[nH]c1c32: 10.8
